Data provenance: patent US20160280699A1

pIC50: −log10 of the molar value. Where a name gives a salt, the structure may show the parent alone.
The reader will find pIC50 measurements below, all made with human factor XIa (Homo sapiens).
Sequence (P03951 388-625 limits assumed): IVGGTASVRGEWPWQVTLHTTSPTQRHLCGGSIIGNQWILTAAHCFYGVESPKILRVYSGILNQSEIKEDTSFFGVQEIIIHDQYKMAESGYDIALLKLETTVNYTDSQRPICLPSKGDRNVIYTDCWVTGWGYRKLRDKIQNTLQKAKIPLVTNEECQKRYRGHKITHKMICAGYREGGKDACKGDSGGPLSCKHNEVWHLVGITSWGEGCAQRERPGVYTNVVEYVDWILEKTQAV
Sequence (P03951 19-387 partner limits assumed): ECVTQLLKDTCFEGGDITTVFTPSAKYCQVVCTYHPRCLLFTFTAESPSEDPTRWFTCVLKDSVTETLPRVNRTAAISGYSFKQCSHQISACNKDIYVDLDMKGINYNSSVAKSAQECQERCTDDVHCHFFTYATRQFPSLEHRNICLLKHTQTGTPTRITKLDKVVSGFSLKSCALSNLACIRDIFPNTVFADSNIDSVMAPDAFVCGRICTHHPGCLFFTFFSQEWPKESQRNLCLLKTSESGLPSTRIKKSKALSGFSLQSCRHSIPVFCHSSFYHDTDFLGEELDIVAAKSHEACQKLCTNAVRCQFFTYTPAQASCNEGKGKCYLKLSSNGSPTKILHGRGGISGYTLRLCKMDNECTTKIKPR
OUTCOME MEASURE: pIC50

Use these answered entries as a reference point.
NC[C@H]1CC[C@H](C(=O)N[C@@H](Cc2ccc(-c3ccc(N4CCOCC4)nc3)cc2)C(=O)Nc2ccc(-c3cc(=O)[nH][nH]3)cc2)CC1 [Example 34, hydrochloride]; 8.27
NC[C@H]1CC[C@H](C(=O)N[C@@H](Cc2ccc(-c3ccnc(N4CCOCC4)c3)cc2)C(=O)Nc2ccc(-c3nn[nH]n3)cc2)CC1 [Example 35, hydrochloride]; 8.26
COc1ccc(-c2ccc(C[C@H](NC(=O)[C@H]3CC[C@H](CN)CC3)C(=O)Nc3ccc(-c4nn[nH]n4)cc3)cc2)c(C)n1 [Example 21, hydrochloride]; 8.89
CN1CCN(c2cc(-c3ccc(C[C@H](NC(=O)C4CCC(CN)CC4)C(=O)Nc4ccc(-c5nnn[nH]5)cc4)cc3)ccn2)CC1 (stereo partly shown) [Example 53, hydrochloride]; 7.96
NC[C@H]1CC[C@H](C(=O)N[C@@H](Cc2ccc(-c3ccc(N4CCOCC4)nc3)c(F)c2)C(=O)Nc2ccc(-c3nn[nH]n3)cc2)CC1 [Example 44, hydrochloride]; 8.70
NC[C@H]1CC[C@H](C(=O)N[C@@H](Cc2ccc(-c3ccncc3Cl)cc2)C(=O)Nc2ccc(-c3nn[nH]n3)cc2)CC1 [Example 15, hydrochloride]; 8.55

[a] NC[C@H]1CC[C@H](C(=O)N[C@@H](Cc2ccc(-c3cccnc3Cl)cc2)C(=O)Nc2ccc(-c3nnn[nH]3)cc2)CC1 [Example 3, hydrochloride]
[b] COc1cnccc1-c1ccc(C[C@H](NC(=O)[C@H]2CC[C@H](CN)CC2)C(=O)Nc2ccc(-c3nn[nH]n3)cc2)cc1 [Example 20, hydrochloride]
[c] CN(C)c1ncc(-c2ccc(C[C@H](NC(=O)[C@H]3CC[C@H](CN)CC3)C(=O)Nc3ccc(-c4nn[nH]n4)cc3)cc2)cn1 [Example 25, hydrochloride]
[d] NC[C@H]1CC[C@H](C(=O)N[C@@H](Cc2ccc(-c3cccnc3C(F)(F)F)cc2)C(=O)Nc2ccc(-c3nnn[nH]3)cc2)CC1 [Example 50, hydrochloride]
Task: Put the molecules in ascending order of pIC50. A ranking is expressed here by listing the labels in the requested order.
Output: c, b, a, d

[A] Cc1cc(N2CCNCC2)ncc1-c1ccc(C[C@H](NC(=O)[C@H]2CC[C@H](CN)CC2)C(=O)Nc2ccc(-c3nnc(Cl)[nH]3)cc2)cc1 [Example 48, hydrochloride]
[B] NC[C@H]1CC[C@H](C(=O)N[C@@H](Cc2ccc(-c3cnccc3Cl)cc2)C(=O)Nc2ccc(-c3nn[nH]n3)cc2)CC1 [Example 12, hydrochloride]
Task: Please compare: A and B . Report which one has the smaller pIC50 value. API: response body contains the label of the selected item.
Output: B

[a] NC[C@H]1CC[C@H](C(=O)N[C@@H](Cc2ccc(-c3cccnc3O)cc2)C(=O)Nc2ccc(-c3nn[nH]n3)cc2)CC1 [Example 37, hydrochloride]
[b] NC[C@H]1CC[C@H](C(=O)N[C@@H](Cc2ccc(-c3cnc(N4CCCCC4)nc3O)cc2)C(=O)Nc2ccc(-c3nn[nH]n3)cc2)CC1 [Example 40, hydrochloride]
Task: Form field 'greater pIC50' accepts a or b ; which applies? API: response body contains the label of the selected item.
Output: b
(b: 8.59, a: 8.28)

[P] NC[C@H]1CC[C@H](C(=O)N[C@@H](Cc2ccc(-c3cnc(N4CCOCC4)nc3)cc2)C(=O)Nc2ccc(-c3nnn[nH]3)cc2)CC1 [Example 1, hydrochloride]
[Q] COc1nc(N2CCN(C)CC2)ncc1-c1ccc(C[C@H](NC(=O)[C@H]2CC[C@H](CN)CC2)C(=O)Nc2ccc(-c3nn[nH]n3)cc2)cc1 [Example 31, hydrochloride]
[R] Cl.NC[C@H]1CC[C@H](C(=O)N[C@@H](Cc2ccc(-c3cnc(N4CCOCC4)nc3)cc2)C(=O)Nc2ccc(-c3nc(C(F)(F)C(F)(F)C(=O)O)n[nH]3)cc2)CC1 [Example 59, hydrochloride]
Task: Put the molecules in ascending order of pIC50. A ranking is expressed here by listing the labels in the requested order.
Output: Q, P, R
(Q: 7.82, P: 8.24, R: 8.59)
